All figures here come from patent US8946270B2.

System: Rhipicephalus sanguineus (Brown Dog Tick)
EXPERIMENT NOTES: whole plant or invertebrate
CONDITIONS USED: 200 ppm; timepoint 4 hrs
Excerpt: A solution of the test compound was used to coat the inner wall of glass vials and to treat two filter papers. Once dried, one filter paper was placed in the cap of the vial and the other in the bottom of the vial. Each treated vial was infested with 10 adult Rhipicephalus sanguineus (Brown Dog Tick). […]
The entries below are paired with their reported Contact SP Rhicicep PCT Mortality (%).

>  <MOLECULE>
CCOc1cccc(OCc2ccc(C(=O)NCC(C)C)nc2)c1

>  <UNITS OF MEASURE>
%

>  <Contact SP Rhicicep PCT Mortality (%)>
100

$$$$
>  <MOLECULE>
Cc1cccc(OCc2ccc(C(=O)NCC(C)C)nc2)c1

>  <UNITS OF MEASURE>
%

>  <Contact SP Rhicicep PCT Mortality (%)>
100

$$$$
>  <MOLECULE>
CC(C)CNC(=O)c1ccc(COc2cccc(-c3ccccc3)c2)cn1

>  <UNITS OF MEASURE>
%

>  <Contact SP Rhicicep PCT Mortality (%)>
100

$$$$
>  <MOLECULE>
O=C(NCc1ccncc1)c1ccc(COc2cc(F)cc(Br)c2)cn1

>  <UNITS OF MEASURE>
%

>  <Contact SP Rhicicep PCT Mortality (%)>
40

$$$$
>  <MOLECULE>
CC(C)CNC(=O)c1ccc(CCOc2ccc(F)c(OC(F)(F)F)c2)cn1

>  <UNITS OF MEASURE>
%

>  <Contact SP Rhicicep PCT Mortality (%)>
90

$$$$
>  <MOLECULE>
CC(C)CNC(=O)c1ccc(COc2ccc(F)c(F)c2)cn1

>  <UNITS OF MEASURE>
%

>  <Contact SP Rhicicep PCT Mortality (%)>
60

$$$$
>  <MOLECULE>
O=C(NCC1CCOCC1)c1ccc(COCc2ccccc2Cl)cn1

>  <UNITS OF MEASURE>
%

>  <Contact SP Rhicicep PCT Mortality (%)>
90

$$$$
>  <MOLECULE>
COc1cccc(OCc2ccc(C(=O)NCC(C)C)nc2)c1

>  <UNITS OF MEASURE>
%

>  <Contact SP Rhicicep PCT Mortality (%)>
0

$$$$
>  <MOLECULE>
CC(C)(C)CNC(=O)c1ccc(COCc2ccc(Cl)cc2)cn1

>  <UNITS OF MEASURE>
%

>  <Contact SP Rhicicep PCT Mortality (%)>
0

$$$$
>  <MOLECULE>
CC(C)CNC(=O)c1ccc(COCc2ccc(C(F)(F)F)c(Cl)c2)cn1

>  <UNITS OF MEASURE>
%

>  <Contact SP Rhicicep PCT Mortality (%)>
90

$$$$
>  <MOLECULE>
O=C(NCC1CCOCC1)c1ccc(COc2ccc(C(F)(F)F)cc2F)cn1

>  <UNITS OF MEASURE>
%

>  <Contact SP Rhicicep PCT Mortality (%)>
80

$$$$
>  <MOLECULE>
COC(CNC(=O)c1ccc(COc2cccc(-c3cccc(F)c3)c2)cn1)OC

>  <UNITS OF MEASURE>
%

>  <Contact SP Rhicicep PCT Mortality (%)>
100

$$$$
>  <MOLECULE>
C=C(C)CNC(=O)c1ccc(COc2cccc(-c3cccc(F)c3)c2)cn1

>  <UNITS OF MEASURE>
%

>  <Contact SP Rhicicep PCT Mortality (%)>
100

$$$$
>  <MOLECULE>
CC(C)CNC(=O)c1ccc(CCOc2ccc(Cl)c(OC(F)(F)F)c2)cn1

>  <UNITS OF MEASURE>
%

>  <Contact SP Rhicicep PCT Mortality (%)>
0

$$$$
>  <MOLECULE>
CC(C)CNC(=O)c1ccc(COCc2cccc(F)c2F)cn1

>  <UNITS OF MEASURE>
%

>  <Contact SP Rhicicep PCT Mortality (%)>
80

$$$$
>  <MOLECULE>
CCc1cccc(OCc2ccc(C(=O)NCCSC)nc2)c1

>  <UNITS OF MEASURE>
%

>  <Contact SP Rhicicep PCT Mortality (%)>
80

$$$$
>  <MOLECULE>
COCCCNC(=O)c1ccc(COc2cccc(-c3cccc(F)c3)c2)cn1

>  <UNITS OF MEASURE>
%

>  <Contact SP Rhicicep PCT Mortality (%)>
40

$$$$
>  <MOLECULE>
CC(C)CNC(=O)c1ccc(COCc2ccc(Cl)c(OC(F)(F)F)c2)cn1

>  <UNITS OF MEASURE>
%

>  <Contact SP Rhicicep PCT Mortality (%)>
100

$$$$
>  <MOLECULE>
CC(C)CNC(=O)c1ccc(COCc2ccc(C(F)(F)F)c(F)c2)cn1

>  <UNITS OF MEASURE>
%

>  <Contact SP Rhicicep PCT Mortality (%)>
100

$$$$
>  <MOLECULE>
CCC(C)CNC(=O)c1ccc(COc2cccc(-c3cccc(F)c3)c2)cn1 (centres unmarked)

>  <UNITS OF MEASURE>
%

>  <Contact SP Rhicicep PCT Mortality (%)>
70

$$$$
